Each recorded value in this set is attributed to PubChem BioAssay (NCI).

Below, each entry is listed with its recorded growth.
- Tested on: NCI-H322M lung
- Method: NCI-60 one-dose screen, 48 h (100 = growth as untreated, 0 = no growth, -100 = all killed)
- Settings: 10 µM unless noted
- Protocol: Growth inhibition of the NCI-H322M human Non-Small Cell Lung tumor cell line is measured as a screen for anti-cancer activity. Cells are grown in 96 well plates and exposed to the test compound for 48 hours. Compounds are tested at a single concentration, which is 10^-5 M for most compounds. The reported endpoint is percent growth (GI% or GIPRCNT), where numbers from 0 - 100% represent growth inhibition, and numbers from -100% - 0 represent cell death. […]
Compounds without any hit were thinned out: in the full panel of roughly 83,000, 20% have a hit.
Form entry: value (%) — number only.

molecule_smiles=CCCCCCCCCCCCCCCCCC1=NCCN1CCOC1=C(Cl)C(=O)c2ccccc2C1=O result_type=growth reported=80.5

Problem: Which growth is listed for NC(=S)Nc1cccc(O)c1 ?
Solution: 88.9

Problem: Which growth is listed for CC1(C)CC[C@]2(C(=O)N3CCOCC3)CC[C@]3(C)C(=CC[C@@H]4[C@@]5(C)CC[C@H](OC(=O)c6cccnc6)C(C)(C)[C@@H]5CC[C@]43C)[C@@H]2C1 ?
Solution: 88.2

Problem: Which growth is listed for Cc1ccc2nc(NC(=O)CSc3nc(Nc4ccc([N+](=O)[O-])cc4)c(C#N)c(-c4ccccc4)n3)sc2c1 ?
Solution: 92.6

Problem: Which growth is listed for N#C/C(=C\c1ccc(-c2ccccc2F)o1)c1nc(-c2ccco2)cs1 ?
Solution: 94.1

----------
Below, each entry is listed with its recorded growth.
- System: DU-145 prostate
- Method: NCI-60 one-dose screen, 48 h (100 = growth as untreated, 0 = no growth, -100 = all killed)
- Settings: 10 µM unless noted
This is part of a sample that, as a whole, favours compounds with a hit. Of some 83,000 tested, about 20% had one in any assay.
Form entry: value (%) — number only.

Examples with answers:
compound=COc1ccc(NC(=O)CSc2nc(C)c(C(C)=O)n2-c2ccc([N+](=O)[O-])cc2)cc1 result_type=growth uom=% reported=113
compound=O=C1/C(=C2/C=Nc3ccccc32)N(O)c2ccccc21 result_type=growth uom=% reported=73.7

Problem: Which growth is listed for Cc1nn(-c2ccccc2)c(Oc2ccc(Cl)cc2)c1/C=N\N=c1/sc2ccccc2n1C ?
Solution: 108

Problem: Which growth is listed for CCSC1=NC2C(N(CC)C(=O)N2CC)N1/N=C/C=C/c1ccccc1[N+](=O)[O-] (stereo not given) ?
Solution: 5.79

Problem: Which growth is listed for COc1cccc(-c2nn(-c3ccccc3)cc2-c2ccnc(NCCNC(=O)Nc3ccccc3)c2)c1 ?
Solution: 65.9

Problem: Which growth is listed for CCCCN(CCCC)CC(C)(C)C(O)c1ccc(OC)c2ccccc12 (stereo not given) ?
Solution: 69.2

Problem: Which growth is listed for COc1ccc2c(c1)CCCN2c1c2ccccc2nc2ccccc12 ?
Solution: 5.71

Problem: Which growth is listed for OC(COc1ccccc1Cl)COc1ccccc1Cl ?
Solution: 116

Problem: Which growth is listed for N#Cc1c(-c2cccc(Cl)c2)cc(-c2cccc(Cl)c2)[nH]c1=O ?
Solution: 96.5

Problem: Which growth is listed for O=C(c1ccccc1)N1N=C(c2ccccc2)CC1c1nnc2n(Cc3ccccc3)c(=O)c3c4c(sc3n12)CCCC4 (stereo not given) ?
Solution: 116

Problem: Which growth is listed for CN(C)c1ccc(-c2ccc3[nH]c(=O)nc(-c4ccccc4)c3c2)cn1 ?
Solution: 65.1

----------
- Tested on: SNB-19 CNS
- Method: NCI-60 one-dose screen, 48 h (100 = growth as untreated, 0 = no growth, -100 = all killed)
- Settings: 10 µM unless noted
About 83,000 compounds went through this panel and 20% of them were active in at least one assay; those are over-represented in the sample as a whole. Active and inactive are the calls of the source. Rule for the calls: active = growth percent below 10; inactive = the rest.
Result type: growth

Problem: Which growth is listed for Cn1c(=O)c2c(nc(Cl)n2CCl)n(C)c1=O ?
Solution: 100% (inactive)

Problem: Which growth is listed for Cc1ccc(/C=C/c2c(C(=O)/C=C/c3ccc(C(F)(F)F)cc3)c(C)nc3ccccc23)cc1 ?
Solution: -62.9% (active)

Problem: Which growth is listed for COc1ccc(S(=O)(=O)NCCNc2nccc(-c3c(-c4cccc(F)c4)nc4sccn34)n2)cc1 ?
Solution: 58.3% (inactive)

----------
- System: COLO 205 colon
- Method: NCI-60 one-dose screen, 48 h
- Settings: 10 µM unless noted
This is part of a sample that, as a whole, favours compounds with a hit. Of some 83,000 tested, about 20% had one in any assay. Calls of active or inactive are those of the source. Rule for the calls: active = growth percent below 10; inactive = the rest.
Thanks in advance; please answer with one of these: 1.0 (active), 0.0 (inactive)

# count of solved cases: 4
molecule_smiles=CCOC(=O)c1c(/C=C/C(=O)O)nc2ccccc2c1/C=C/c1ccccc1 assigned_category=0.0
molecule_smiles=Cc1cc(N2CCCC2)nc(NCc2cc(Nc3ccnc4cc(Cl)ccc34)ccc2F)n1 assigned_category=1.0
molecule_smiles=CCOC(=O)c1c2ncccc2n2c(=O)n(-c3ccccc3C)nnc12 assigned_category=0.0
molecule_smiles=NC(=O)c1ccc[n+]([C@@H]2O[C@H](COP(=O)([O-])OP(=O)(O)OC[C@H]3O[C@@H](n4cnc5c(N)ncnc54)[C@H](O)[C@@H]3O)[C@@H](O)[C@H]2O)c1 assigned_category=0.0

Problem: Outcome logged for O=C(Nc1cccc2c(O)c(N=Nc3ccc(S(=O)(=O)Nc4nccs4)cc3)cc(N=Nc3ccc(S(=O)(=O)Nc4nccs4)cc3)c12)C(Cl)Cl in this assay:
Solution: 0.0

Problem: Outcome logged for COc1cc(/C=N/n2c(CN3CCOCC3)nc3ccccc3c2=O)cc(OC)c1OC in this assay:
Solution: 0.0

Problem: Outcome logged for COc1ccc(/C=N\NC(=O)c2cc(-c3ccc(Br)cc3)n(-c3ccc(S(N)(=O)=O)cc3)n2)cc1 in this assay:
Solution: 0.0

Problem: Outcome logged for COc1nc(N(C)O)nc(N(C)O)n1 in this assay:
Solution: 0.0

----------
- Tested on: 786-0 renal
- Method: NCI-60 one-dose screen, 48 h
- Settings: 10 µM unless noted
The panel holds about 83,000 compounds, 20% with a hit somewhere; the sample as a whole holds those more often. The source made the active and inactive calls. The calls were made as follows: active = growth percent below 10; inactive = the rest.
Thanks in advance; please answer with one of these: 1 (yes) for active, 0 (no) for inactive

# count of solved cases: 3
compound=Cc1cc(NCc2cc(Nc3ccnc4cc(Cl)ccc34)ccc2F)nc(N2CCOCC2)n1 assigned_category="1 (yes)"
compound=CCN(CC)CCCNc1ccc(Nc2ccc(OC)cc2)cc1 assigned_category="0 (no)"
compound="CC(=O)OC1CCC2(C)C(=CC3C4CCC(=O)C4(C)CCC32)C1 (stereo unspecified)" assigned_category="0 (no)"

Problem: Outcome logged for COc1ccc2c(c1)[nH]c(=O)c1c3cccnc3cn21 in this assay:
Solution: 0 (no)

Problem: Outcome logged for COCCN(C(=O)c1ccc(F)cc1F)c1c(N)n(Cc2ccccc2)c(=O)[nH]c1=O in this assay:
Solution: 0 (no)

Problem: Outcome logged for CCN(CC)Cc1cccc(C(=O)OC)c1 in this assay:
Solution: 0 (no)

Problem: Outcome logged for COC(=O)[C@]12CC[C@@H](C)[C@H](C)[C@@H]1C1=CC[C@@H]3[C@@]4(C)C(C=O)=C[C@@](C)(CO)[C@@H]4[C@H](O)C[C@@]3(C)[C@]1(C)CC2 in this assay:
Solution: 1 (yes)

Problem: Outcome logged for NC(=O)c1ccc[n+](Cc2ccc(Cl)cc2Cl)c1 in this assay:
Solution: 0 (no)

Problem: Outcome logged for Cc1c(O)cc(-c2cnc(N/N=C\c3ccc(Cl)cc3)s2)c(O)c1C in this assay:
Solution: 0 (no)

Problem: Outcome logged for Cc1ccc2c(c1)Sc1c(ccc3ccccc13)N2 in this assay:
Solution: 0 (no)

----------
- System: UACC-257 melanoma
- Method: NCI-60 one-dose screen, 48 h (100 = growth as untreated, 0 = no growth, -100 = all killed)
- Settings: 10 µM unless noted
About 83,000 compounds went through this panel and 20% of them were active in at least one assay; those are over-represented in the sample as a whole.
Below, each entry is listed with its recorded growth.
Form entry: value (%) — number only.

Examples with answers:
molecule="CC(=O)O[C@]1(C(C)=O)CCC2C3C[C@H](C)C4=CC(=O)CC[C@]4(C)C3CC[C@@]21C (stereo not given in full)" reported=107
molecule=CC(C)CCC[C@@H](C)[C@H]1CC[C@H]2[C@@H](Nc3ccc(O)cc3)CCC[C@]12C reported=42.2
molecule=CCN(CC)CCN1C(=O)c2c(c(C)c3c(oc4cc(O)ccc43)c2C)C1=O reported=97.7
molecule=Cc1nc2c(c(N3CCCc4ccccc43)n1)CCC2 reported=26.3
molecule="COc1ccc(-c2nc3c(c(=O)n2C(C)=O)C(c2ccc(Cl)cc2)c2sc4c(Cl)cccc4c2O3)cc1 (stereo not given)" reported=12.2

Problem: Which growth is listed for Cc1ccc(C(=NN=C(N)N)c2ccc(C)cc2)cc1 ?
Solution: 25.9

Problem: Which growth is listed for Cc1c2c(c(C)c3c1oc1cc(O)ccc13)C(=O)N(CCN1CCCCC1)C2=O ?
Solution: 110

Problem: Which growth is listed for O=C(NCCNc1cc(-c2cn(-c3ccccc3)nc2-c2cccc(O)c2)ccn1)Nc1ccccc1 ?
Solution: 58.7

Problem: Which growth is listed for CCc1ccccc1NC(=O)/C(C#N)=C/c1ccc(OC)cc1 ?
Solution: 108

Problem: Which growth is listed for O=C(Nc1ccccc1-c1nc2ccccc2c(=O)[nH]1)c1cc2ccccc2[nH]1 ?
Solution: 83.4
